System: HCC 1806 cells
Test: Cell proliferation inhibitory effect on human breast cancer cell line
Format: cell-based
Settings: HCC1806, 72 h, crystal violet, read-out: Cell growth suppression IC50
pIC50: −log10 of the molar value.
PARAMETER MEASURED: pIC50

{"columns": ["COMPOUND", "pIC50"],
 "data": [
  ["[2H]C([2H])([2H])C1(O)CCOc2c(S(=O)(=O)N[C@H](c3n[nH]c(=O)o3)[C@H](C)c3c(F)ccc(Cl)c3C)ccc(Cl)c21 (single isomer, unassigned) [Example 228A]", 6.85],
  ["COc1c(S(=O)(=O)N[C@H](c2n[nH]c(=O)o2)[C@H](C)c2c(F)ccc(C)c2C)ccc(Cl)c1C(C)O (stereo partly drawn)", 6.82],
  ["CC(=O)OC1(C)CCOc2c(S(=O)(=O)N[C@H](c3n[nH]c(=O)o3)[C@H](C)c3c(F)ccc(C)c3C)ccc(Cl)c21 (stereo partly drawn)", 6.85]
]}
